Each recorded value in this set is attributed to ChEMBL document CHEMBL4428087.

Quick reference for IC50 among some molecules
test system: A549; assay: Antiproliferative activity against human A549 cells after 72 hrs by MTS assay; assay type: functional, cell-based; details: A549, 72 h
Put your answer as a value accompanied by its unit after it.

COc1cc2c(N3CCN(C(=S)SCC4CCCCC4)CC3)ncnc2cc1OCCCN1CCCCC1 :: 4.06 µM

Turning now to a further record.
Which value of IC50 has been reported for `COc1cc2c(N3CCN(C(=S)SCc4ccc(Cl)cc4)CC3)ncnc2cc1OCCCN1CCCCC1` in the records?
4.71 µM

----------
system: MCF7; test: Antiproliferative activity against human MCF7 cells after 72 hrs by MTS assay; assay type: functional, cell-based; conditions: MCF7, 72 h
Classes are defined on IC50 with ranges bottom bin: < 4 µM; middle bin: ≥ 4 µM and < 10 µM; top bin: ≥ 10 µM

Check out these entries, answers already filled in.
COc1cc2c(N3CCN(C(=S)SCc4ccc([N+](=O)[O-])cc4)CC3)ncnc2cc1OCCCN1CCCCC1 :: middle bin
COc1cc2c(N3CCN(C(=S)SCc4ccncc4)CC3)ncnc2cc1OCCCN1CCCCC1 :: top bin
COc1cc2c(N3CCN(C(=S)SCC4CCCO4)CC3)ncnc2cc1OCCCN1CCCCC1 (centres undefined) :: top bin
COc1cccc(CSC(=S)N2CCN(c3ncnc4cc(OCCCN5CCCCC5)c(OC)cc34)CC2)c1 :: bottom bin
COc1cc2c(N3CCN(C(=S)SCc4ccsc4)CC3)ncnc2cc1OCCCN1CCCCC1 :: middle bin
COc1cc2c(N3CCN(C(=S)SCC4CCOCC4)CC3)ncnc2cc1OCCCN1CCCCC1 :: top bin

Please let me know in which category the item `COc1cc2c(N3CCN(C(=S)SCc4ccco4)CC3)ncnc2cc1OCCCN1CCCCC1` belongs.
middle bin

Please let me know in which category the item `COc1cc2c(N3CCN(C(=S)SC(C)C)CC3)ncnc2cc1OCCCN1CCCCC1` belongs.
middle bin

Please let me know in which category the item `COc1cc2c(N3CCN(C(=S)SCc4ccc(F)cc4F)CC3)ncnc2cc1OCCCN1CCCCC1` belongs.
middle bin

Please let me know in which category the item `COc1cc2c(N3CCN(C(=S)SCc4cccnc4)CC3)ncnc2cc1OCCCN1CCCCC1` belongs.
top bin

Please let me know in which category the item `COc1cc2c(N3CCN(C(=S)SCc4ccccc4)CC3)ncnc2cc1OCCCN1CCCCC1` belongs.
top bin
